Source of measurements: ChEMBL document CHEMBL1159318

A collection of molecules and their measured level, % of control
Test system: Raji
experimentalDetails: Inhibition of TPA-induced EBV-early antigen activation in human Raji cells at 10 molar ratio after 48 hrs relative to TPA; values are per cent of control
runConditions: human gammaherpesvirus 4

[in] Write down level, % of control measured for item C[C@H](CC[C@@H](O)C(C)(C)O[C@@H]1O[C@H](CO)[C@@H](O)[C@H](O)[C@H]1O)[C@H]1CC[C@@]2(C)[C@@H]3CC=C4[C@@H](CC[C@H](O)C4(C)C)[C@]3(C)C(=O)C[C@]12C [BRYONIOSIDE A]
[out] 100%

[in] For the molecule CC(=O)O[C@@H]1[C@@H](O)[C@@H](O)[C@H](O[C@H]2[C@H](O[C@H]3CC[C@@H]4C(=CC[C@@H]5[C@@]4(C)C(=O)C[C@]4(C)[C@@H]([C@H](C)CC[C@@H](O)C(C)(C)O)CC[C@@]54C)C3(C)C)O[C@H](CO)[C@@H](O)[C@@H]2O)O[C@H]1C [BRYONIOSIDE C] , report level, % of control.
[out] 100%

[in] Recall and state the measured level, % of control for C[C@H](CCC(=O)C(C)(C)O)[C@H]1CC[C@@]2(C)[C@@H]3CC=C4[C@@H](CC[C@H](O)C4(C)C)[C@]3(C)C(=O)C[C@]12C [BRYOSIGENIN] .
[out] 92.7%

[in] // fetch level, % of control given entry C[C@H](CC[C@@H](O)C(C)(C)O)[C@H]1CC[C@@]2(C)[C@@H]3CC=C4[C@@H](CC[C@H](O)C4(C)C)[C@]3(C)C(=O)C[C@]12C [BRYODULCOSIGENIN]
[out] 88.9%
